# TEST_DESCRIPTION: Volume of distribution at steady state in Sprague-Dawley rat at 2 mg/kg, iv
# Format: ADME, organism-based
# Design: dose 2 mg/kg, route intravenous
# REPORTED_CONDITIONS: in vivo, read-out: Vdss
TEST_READOUT: Vd (L/kg)

[[record]]
mol_smiles = "CC(C)(C[C@@](O)(Cc1cc2ccc(C#N)cc2[nH]1)C(F)(F)F)c1cc(S(C)(=O)=O)cc2c1OCC2"
numeric_readout = 7.7


----------
# Species: Homo sapiens
# TEST_DESCRIPTION: Selectivity ratio of IC50 for human recombinant glucocorticoid receptor to IC50 for human recombinant mineralocorticoid receptor
TEST_READOUT: Ratio IC50

[[record]]
molecule = "COc1ccc(F)cc1C(C)(C)CC(O)(Cc1cc2cc(C#N)ccc2[nH]1)C(F)(F)F (racemic)"
test_readout = "Ratio IC50"
numeric_readout = 50

[[record]]
molecule = "COc1ccc(F)cc1C(C)(C)CC(O)(Cc1cc2ccc(C#N)cc2[nH]1)C(F)(F)F (racemic)"
test_readout = "Ratio IC50"
numeric_readout = 30

[[record]]
molecule = "CC(C)(CC(O)(Cc1cc2ccccc2[nH]1)C(F)(F)F)c1cc(S(C)(=O)=O)cc2c1OCC2 (racemic)"
test_readout = "Ratio IC50"
numeric_readout = 100

[[record]]
molecule = "CC(C)(C[C@@](O)(Cc1cc2ccc(C#N)cc2[nH]1)C(F)(F)F)c1cc(S(C)(=O)=O)cc2c1OCC2"
test_readout = "Ratio IC50"
numeric_readout = 100


----------
# TGT: Glucocorticoid receptor (Homo sapiens)
# Sequence (P04150 whole entry): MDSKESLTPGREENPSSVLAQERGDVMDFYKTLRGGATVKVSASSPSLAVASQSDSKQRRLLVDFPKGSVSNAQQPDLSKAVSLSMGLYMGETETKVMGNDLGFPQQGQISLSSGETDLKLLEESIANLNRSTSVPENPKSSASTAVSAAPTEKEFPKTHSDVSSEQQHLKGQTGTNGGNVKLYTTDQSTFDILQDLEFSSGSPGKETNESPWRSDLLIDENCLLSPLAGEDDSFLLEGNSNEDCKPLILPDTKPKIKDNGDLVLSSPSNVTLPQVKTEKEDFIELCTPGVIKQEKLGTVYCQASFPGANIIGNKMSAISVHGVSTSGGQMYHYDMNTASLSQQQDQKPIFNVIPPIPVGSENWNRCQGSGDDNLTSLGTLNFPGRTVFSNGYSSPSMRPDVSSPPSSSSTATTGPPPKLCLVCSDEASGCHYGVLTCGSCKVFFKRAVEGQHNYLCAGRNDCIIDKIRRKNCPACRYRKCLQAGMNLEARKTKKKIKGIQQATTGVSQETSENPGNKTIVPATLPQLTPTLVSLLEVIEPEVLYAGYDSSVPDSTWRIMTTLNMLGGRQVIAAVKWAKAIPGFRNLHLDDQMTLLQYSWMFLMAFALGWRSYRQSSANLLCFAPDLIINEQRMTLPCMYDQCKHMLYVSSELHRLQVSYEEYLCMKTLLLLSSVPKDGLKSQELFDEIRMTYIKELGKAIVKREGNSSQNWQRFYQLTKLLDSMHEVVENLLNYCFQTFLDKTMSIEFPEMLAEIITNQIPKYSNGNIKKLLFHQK
# TEST_DESCRIPTION: Displacement of tetramethylrhodamine-labeled Dexamethasone from human recombinant glucocorticoid receptor expressed in baculovirus infected insect cells by fluorescence polarization assay
Reported values of IC50 for individual entries
TEST_READOUT: IC50 (nM)

[[record]]
molecule = "COc1ccc(F)cc1C(C)(C)CC(O)(Cc1cc2cccc(C(F)(F)F)c2[nH]1)C(F)(F)F (racemic)"
tgt = "Glucocorticoid receptor (Homo sapiens)"
test_readout = "IC50"
value_operator = "="
numeric_readout = 120

[[record]]
molecule = "COc1ccc(F)cc1C(C)(C)C[C@](O)(Cc1cc2ccccc2[nH]1)C(F)(F)F"
tgt = "Glucocorticoid receptor (Homo sapiens)"
test_readout = "IC50"
value_operator = ">"
numeric_readout = 2000

[[record]]
molecule = "COc1ccc(F)cc1C(C)(C)CC(O)(Cc1cc2ccccc2[nH]1)C(F)(F)F (racemic)"
tgt = "Glucocorticoid receptor (Homo sapiens)"
test_readout = "IC50"
value_operator = "="
numeric_readout = 22

[[record]]
molecule = "CCc1cccc2[nH]c(CC(O)(CC(C)(C)c3cc(F)ccc3OC)C(F)(F)F)cc12 (racemic)"
tgt = "Glucocorticoid receptor (Homo sapiens)"
test_readout = "IC50"
value_operator = "="
numeric_readout = 28

[[record]]
molecule = "COc1ccc(F)cc1C(C)(C)CC(O)(Cc1cc2c(C#N)cccc2[nH]1)C(F)(F)F (racemic)"
tgt = "Glucocorticoid receptor (Homo sapiens)"
test_readout = "IC50"
value_operator = "="
numeric_readout = 5

[[record]]
molecule = "CC(C)(CC(O)(Cc1cc2ccccc2[nH]1)C(F)(F)F)c1cccc2c1OCC2 (racemic)"
tgt = "Glucocorticoid receptor (Homo sapiens)"
test_readout = "IC50"
value_operator = "="
numeric_readout = 19

[[record]]
molecule = "COc1ccc(F)cc1C(C)(C)CC(O)(Cc1cc2cc(F)ccc2[nH]1)C(F)(F)F (racemic)"
tgt = "Glucocorticoid receptor (Homo sapiens)"
test_readout = "IC50"
value_operator = "="
numeric_readout = 24

[[record]]
molecule = "COc1ccc(F)cc1C(C)(C)C[C@@](O)(Cc1cc2ccccc2[nH]1)C(F)(F)F"
tgt = "Glucocorticoid receptor (Homo sapiens)"
test_readout = "IC50"
value_operator = "="
numeric_readout = 10

[[record]]
molecule = "CC(C)(CC(O)(Cc1cc2ccccc2[nH]1)C(F)(F)F)c1cc(Br)cc2c1OCC2 (racemic)"
tgt = "Glucocorticoid receptor (Homo sapiens)"
test_readout = "IC50"
value_operator = "="
numeric_readout = 32

[[record]]
molecule = "COc1ccc(F)cc1C(C)(C)CC(O)(Cc1cc2cccc(F)c2[nH]1)C(F)(F)F (racemic)"
tgt = "Glucocorticoid receptor (Homo sapiens)"
test_readout = "IC50"
value_operator = "="
numeric_readout = 15

[[record]]
molecule = "CC(C)(CC(O)(Cc1cc2ccccc2[nH]1)C(F)(F)F)c1cc(C#N)cc2c1OCC2 (racemic)"
tgt = "Glucocorticoid receptor (Homo sapiens)"
test_readout = "IC50"
value_operator = "="
numeric_readout = 15

[[record]]
molecule = "Cc1cc2c(c(C(C)(C)CC(O)(Cc3cc4ccccc4[nH]3)C(F)(F)F)c1)OCC2 (racemic)"
tgt = "Glucocorticoid receptor (Homo sapiens)"
test_readout = "IC50"
value_operator = "="
numeric_readout = 10

[[record]]
molecule = "CC(C)(CC(O)(Cc1cc2ccccc2[nH]1)C(F)(F)F)c1cc(F)cc2c1OCC2 (racemic)"
tgt = "Glucocorticoid receptor (Homo sapiens)"
test_readout = "IC50"
value_operator = "="
numeric_readout = 8

[[record]]
molecule = "COc1ccc(F)cc1C(C)(C)CC(O)(Cc1cc2cc(C(F)(F)F)ccc2[nH]1)C(F)(F)F (racemic)"
tgt = "Glucocorticoid receptor (Homo sapiens)"
test_readout = "IC50"
value_operator = "="
numeric_readout = 290

[[record]]
molecule = "COc1ccc(F)cc1C(C)(C)CC(O)(Cc1cc2c(C(F)(F)F)cccc2[nH]1)C(F)(F)F (racemic)"
tgt = "Glucocorticoid receptor (Homo sapiens)"
test_readout = "IC50"
value_operator = "="
numeric_readout = 160

[[record]]
molecule = "COc1ccc(F)cc1C(C)(C)CC(O)(Cc1cc2ccc(F)cc2[nH]1)C(F)(F)F (racemic)"
tgt = "Glucocorticoid receptor (Homo sapiens)"
test_readout = "IC50"
value_operator = "="
numeric_readout = 30

[[record]]
molecule = "CC(C)(CC(O)(Cc1cc2cc(C#N)ccc2[nH]1)C(F)(F)F)c1cc(S(C)(=O)=O)cc2c1OCC2 (racemic)"
tgt = "Glucocorticoid receptor (Homo sapiens)"
test_readout = "IC50"
value_operator = "="
numeric_readout = 5

